Where do these numbers come from? They come from ChEMBL document CHEMBL3045804.

- Test system: Rotala indica
- measurement_notes: Herbicidal activity against Rotala indica assessed as killing at 800 g/10 acre measured after 3 weeks by pre-emergence/paddy application test
- Assay type: functional
Threshold 50%. Activity below it: y. Activity at it or above: n.

Completed entries (count: 4):
c1ccc(CNc2ncncn2)cc1
y
Cc1nc(NCc2ccccc2)nc(-c2ccccc2)n1
y
CCc1nc(NCc2ccccc2)nc(C(F)(F)F)n1
n
Cc1nc(NCCc2ccccc2)nc(C(F)(F)F)n1
n

For the next question, use this compound.
Ask | Just wondering, is Activity of "CC(C)c1nc(NCc2ccccc2)nc(C(F)(F)F)n1" below 50%?
Reply | n

----------
- System: Echinochloa crus-galli
- measurement_notes: Herbicidal activity against Echinochloa crus-galli (barnyard grass) assessed as killing at 400 g/10 acre measured after 3 weeks by post-emergence/foliar application test
- Type: functional
Each entry below lists one item and its recorded Activity value.
The number alone won't do; follow it with the unit.

Ask | Tell me Activity reported for "CCCc1nc(C)nc(NCc2ccccc2)n1"
Reply | 1%

Ask | Tell me Activity reported for "Cc1nc(NCc2ccccc2)nc(C(F)(F)F)n1"
Reply | 51%

Ask | Tell me Activity reported for "Cc1nc(NCCc2ccccc2)nc(C(F)(F)F)n1"
Reply | 0%

Ask | Tell me Activity reported for "CCc1nc(NCc2ccccc2)nc(C(F)(F)F)n1"
Reply | 1%

Ask | Tell me Activity reported for "Cc1ncnc(NCc2ccccc2)n1"
Reply | 0%

----------
- Test system: Stellaria media
- measurement_notes: Herbicidal activity against Stellaria media assessed as killing at 800 g/10 acre measured after 3 weeks by pre-emergence/field application test
- Format: functional
test_readout: Activity (%)
The reply should contain only the number, in %.

Sample answers from the record:
CC(C)c1nc(NCc2ccccc2)nc(C(F)(F)F)n1
26
Cc1nc(NCc2ccccc2)nc(C(Cl)(Cl)Cl)n1
0
Cc1nc(C)nc(NCc2ccccc2)n1
0
CCCc1nc(C)nc(NCc2ccccc2)n1
0
Cc1ncnc(NCc2ccccc2)n1
0
CCc1nc(NCc2ccccc2)nc(C(F)(F)F)n1
100
c1ccc(CNc2ncncn2)cc1
0
Cc1nc(NCc2ccccc2)nc(-c2ccccc2)n1
0
Cc1nc(NCc2ccccc2)nc(C(F)(F)F)n1
100

Ask | Find the measured Activity of "Cc1nc(NCCCc2ccccc2)nc(C(F)(F)F)n1" with Stellaria media as test system.
Reply | 100

----------
- Tested on: Schoenoplectiella juncoides
- measurement_notes: Herbicidal activity against Schoenoplectiella juncoides assessed as killing at 800 g/10 acre measured after 3 weeks by pre-emergence/paddy application test
- Type: functional
test_readout: Activity (%)
The reply should contain only the number, in %.

Sample answers from the record:
Cc1ncnc(NCc2ccccc2)n1
0
c1ccc(CNc2ncncn2)cc1
0
Cc1nc(NCc2ccccc2)nc(C(Cl)(Cl)Cl)n1
51
CCc1nc(C)nc(NCc2ccccc2)n1
1
Cc1nc(C)nc(NCc2ccccc2)n1
0
Cc1nc(NCc2ccccc2)nc(-c2ccccc2)n1
0
CCc1nc(NCc2ccccc2)nc(C(F)(F)F)n1
100
Cc1nc(NCCCc2ccccc2)nc(C(F)(F)F)n1
1

Ask | Tell me Activity reported for "Cc1nc(NCc2ccccc2)nc(C(F)(F)F)n1"
Reply | 76

Ask | Tell me Activity reported for "CC(C)c1nc(NCc2ccccc2)nc(C(F)(F)F)n1"
Reply | 100

Ask | Tell me Activity reported for "CCCc1nc(C)nc(NCc2ccccc2)n1"
Reply | 1

Ask | Tell me Activity reported for "Cc1nc(NCCc2ccccc2)nc(C(F)(F)F)n1"
Reply | 26

----------
- Test system: Rotala indica
- measurement_notes: Herbicidal activity against Rotala indica assessed as killing at 800 g/10 acre measured after 3 weeks by pre-emergence/paddy application test
- Format: functional
test_readout: Activity (%)
The reply should contain only the number, in %.

Ask | Tell me Activity reported for "CCc1nc(C)nc(NCc2ccccc2)n1"
Reply | 51

Ask | Tell me Activity reported for "Cc1ncnc(NCc2ccccc2)n1"
Reply | 0

Ask | Tell me Activity reported for "Cc1nc(C)nc(NCc2ccccc2)n1"
Reply | 1

Ask | Tell me Activity reported for "Cc1nc(NCCCc2ccccc2)nc(C(F)(F)F)n1"
Reply | 51

Ask | Tell me Activity reported for "Cc1nc(NCc2ccccc2)nc(C(F)(F)F)n1"
Reply | 91

Ask | Tell me Activity reported for "Cc1nc(NCc2ccccc2)nc(C(Cl)(Cl)Cl)n1"
Reply | 91

Ask | Tell me Activity reported for "CCCc1nc(C)nc(NCc2ccccc2)n1"
Reply | 26

----------
- System: Echinochloa crus-galli
- measurement_notes: Herbicidal activity against Echinochloa crus-galli (barnyard grass) assessed as killing at 400 g/10 acre measured after 3 weeks by post-emergence/foliar application test
- Assay type: functional
test_readout: Activity (%)
The reply should contain only the number, in %.

Sample answers from the record:
Cc1nc(NCCCc2ccccc2)nc(C(F)(F)F)n1
91
CC(C)c1nc(NCc2ccccc2)nc(C(F)(F)F)n1
0
Cc1nc(NCc2ccccc2)nc(-c2ccccc2)n1
0
c1ccc(CNc2ncncn2)cc1
0
Cc1nc(NCc2ccccc2)nc(C(Cl)(Cl)Cl)n1
0

Query compound follows.
Ask | Tell me Activity reported for "Cc1nc(C)nc(NCc2ccccc2)n1"
Reply | 1
